Kindly state pIC50 for each of the entries shown.
System: Pfeiffer cells
assayComment: Cell proliferation test (cell counting kit-8, 6 days)
Type: cell-based
conditionDetails: Homo sapiens, Pfeiffer, 144 h, 6 days' growth
The read-out pIC50 is expressed as -log10 of concentration in moles per litre.

The reported pIC50 value, Pfeiffer cells, for CCN(c1cc(C#CCN2CCN(C)CC2)cc2c(NCc3c(C)cc(C)[nH]c3=O)nccc12)C1CCC(N(C)C)CC1 (stereo not drawn) reads 6.42

Lab note: compound CCN(c1cc(-c2cnc(N3CCOCC3)nc2)cc2c(NCc3c(C)cc(C)[nH]c3=O)nccc12)[C@H]1CC[C@H](N(C)C)CC1 tested on Pfeiffer cells; recorded pIC50 was 6.44

pIC50 value, target or system Pfeiffer cells, for CCN(c1cc(C#CCN2CCOCC2)cc2c(NCc3c(C)cc(C)[nH]c3=O)nccc12)C1CCC(N(C)C)CC1 (stereo not drawn) : 6.35

Measured values drawn from patent US20200262813A1 for this set.
